Test system: CAKI-1 renal
Measurement protocol: NCI tumour cell line growth inhibition, 48 h
# GI50 listing for each entry below

{"columns": ["Compound", "Tested system", "GI50"],
 "data": [
  ["CN1CCN(Cc2ccc(NC(=O)c3nc4ccc5[nH]ncc5c4c4c3CCC4)cc2C(F)(F)F)CC1", "CAKI-1 renal", "815 nM"],
  ["C=CC(=O)N1CCC([C@@H]2CCNc3c(C(N)=O)c(-c4ccc(Oc5ccccc5)cc4)nn32)CC1", "CAKI-1 renal", "10400 nM"],
  ["COc1c(NC(=O)CC(C)=O)[c]([Hg][O]C(C)=O)c(OC)c(Cl)[c]1[Hg][O]C(C)=O", "CAKI-1 renal", "13000 nM"],
  ["O=c1oc2ccc(Cl)cc2c(=O)n1-c1cc(C(F)(F)F)cc(C(F)(F)F)c1", "CAKI-1 renal", "198 nM"],
  ["COC(=O)c1ccc2c(c1)C(=O)c1c-2n(CCCN)c(=O)c2cc([N+](=O)[O-])ccc12", "CAKI-1 renal", "< 10 nM"]
]}

Reported GI50 (CAKI-1 renal) for entry CCC[CH2][Sn]([CH2]CCC)([O]C(=O)c1cc(OC)c(OC)cc1OC)[O]C(=O)c1cc(OC)c(OC)cc1OC is 419 nM

Field GI50 (CAKI-1 renal), entry CCN(C(=O)CCl)C(C)(C)C(SSSC(c1ccc(Cl)cc1)C(C)(C)N(CC)C(=O)CCl)c1ccc(Cl)cc1 (stereo not drawn) : 4090 nM

CC1(C)CC(OCCCC[P+](c2ccccc2)(c2ccccc2)c2ccccc2)CC(C)(C)N1O on CAKI-1 renal gives GI50 = 1190 nM
